tested on: 3D7-MR4 trophozoite parasite-infected RBCs; experiment: Metabolomic profiling (hydrophilic metabolite changes, UHPLC-MS); assay type: cell-based, Plasmodium falciparum; details: metabolite UDP-D-glucuronate; log2 fold change
Result Type: Log2(fold changes) UDP-D-glucuronate
Give bare numbers.

Worked examples follow.
{"Molecule": "FC(F)(F)c1cccc(Nc2nc3ccccc3nc2Nc2cccc(C(F)(F)F)c2)c1", "Log2(fold changes) UDP-D-glucuronate": 0.0333}
{"Molecule": "CC(C)(C)OC(=O)N1CCN(c2ccccc2NC(=O)c2cccc(C(F)(F)F)c2Oc2ccc(F)cc2)CC1", "Log2(fold changes) UDP-D-glucuronate": -0.4871}
{"Molecule": "FC(F)(F)c1ccc(Nc2cc3[nH]c(-c4cccc(C(F)(F)F)c4)nc3cn2)nc1", "Log2(fold changes) UDP-D-glucuronate": -0.0296}

Provide reported Log2(fold changes) UDP-D-glucuronate for each item, in the same order as listed.
1. CN(C)Cc1ccc(-c2cc3c(-c4ccc(CN(C)C)cc4)ccnc3[nH]2)cc1.O=C(O)C(F)(F)F
2. COCCNCC(O)Cn1c2ccc(Cl)cc2c2cc(Cl)ccc21 (stereo not shown)
3. COc1cncc(-c2cncc(N3CCN(c4ccncc4)CC3)n2)c1
4. CNc1nc(NCCCN(C)C)c2sc(-c3cccc(C(F)(F)F)c3)cc2n1
5. O=C1C(O)=C([C@H]2CC[C@H](c3ccc(Cl)cc3)CC2)C(=O)c2ccccc21 [Atovaquone, reference compound]
6. COc1cc(-c2nc(-c3ccccc3)c(-c3ccccc3)[nH]2)ccc1OCCN(C)C

## Result
[-0.1151, -0.4277, 0.0222, -0.0320, -0.0044, -0.0322]

## Task If you can, please state the reported Log2(fold changes) UDP-D-glucuronate value of OC(c1cc(C(F)(F)F)nc2c(C(F)(F)F)cccc12)C1CCCCN1 (stereo not shown) [Mefloquine, reference compound] .
## Result 0.0727
